- experiment description: binders of probe aFGF2 on microarray, primary screen, stem cell growth factor project, biochemical, small-molecule microarray, fluorescence 635/667 (AID 1067);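 also: measures binding of biotinylated aFGF2 protein to printed compounds on slides; z-score merges feature fluorescence and signal-to-noise across triplicate slides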
- experimental context: higher = more signal
endpoint: composite z-score

INSERT INTO assay_data (compound, endpoint, experimental_result) VALUES
  ('C=CCNC(=O)[C@@H]1[C@H]2C(=O)O[C@H](c3ccccc3)[C@H](c3ccccc3)N2[C@H](c2ccc(O)cc2)[C@@]12C(=O)Nc1ccc(C#CCC(C(=O)OC)C(=O)OC)cc12', 'composite z-score', -0.18),
  ('NC(=O)N1C(=O)C2C(C1=O)C1C=C(CCCO)C2C(C2CC2)N1Cc1cccc(OC(F)(F)F)c1 (centres undefined)', 'composite z-score', -0.139),
  ('C=CC[C@H](OC(=O)Nc1ccc(SC)cc1)c1ccc(OCCO)cc1', 'composite z-score', -0.107),
  ('CCCCNC(=O)c1ccc(C#C[Si](C(C)C)(C(C)C)C(C)C)c(OC(C)=O)c1', 'composite z-score', -0.108);
